Consider the following molecules and their measured inhibition readings.
TARGET_SYSTEM: Serine/threonine-protein kinase PAK 1 (Homo sapiens) (UniProt Q13153);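 note: reported values are mean percent inhibition of PAK1 activity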
Sequence (Q13153 whole entry): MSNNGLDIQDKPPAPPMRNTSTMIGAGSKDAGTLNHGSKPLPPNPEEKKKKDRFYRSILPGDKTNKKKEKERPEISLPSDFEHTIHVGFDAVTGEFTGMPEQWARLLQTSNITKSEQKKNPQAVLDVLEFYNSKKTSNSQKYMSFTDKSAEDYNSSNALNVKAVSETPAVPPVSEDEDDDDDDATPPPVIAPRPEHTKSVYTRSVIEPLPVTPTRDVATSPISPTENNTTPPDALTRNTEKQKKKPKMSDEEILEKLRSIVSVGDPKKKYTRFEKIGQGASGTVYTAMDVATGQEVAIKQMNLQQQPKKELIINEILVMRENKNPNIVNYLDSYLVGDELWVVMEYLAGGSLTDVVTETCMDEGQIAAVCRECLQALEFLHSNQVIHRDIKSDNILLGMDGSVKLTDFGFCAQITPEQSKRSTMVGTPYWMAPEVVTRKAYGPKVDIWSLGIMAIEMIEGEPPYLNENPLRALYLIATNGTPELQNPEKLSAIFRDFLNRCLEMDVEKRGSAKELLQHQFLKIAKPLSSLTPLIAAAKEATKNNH
PROTOCOL_CONDITIONS: at 1 µM
Enter your answer as a number in %; do not include the unit.

>>> recorded_result("CCS(=O)(=O)c1ccc(OC)c(Nc2ncc(-c3cccc(-c4ccccc4F)c3)o2)c1")
-0.96
>>> recorded_result("NC(=O)c1cc(-c2ccc(F)cc2)cc(-c2ccncc2)c1N")
6.13
>>> recorded_result("COc1cccc(/C=N/Nc2ncnc3c2cnn3-c2cccc(OC)c2)c1")
6.13

Quick check: inhibition of CCS(=O)(=O)c1ccc(OC)c(Nc2ncc(-c3ccccc3Cl)o2)c1 ?
-1.58

Quick check: inhibition of Cc1ccc(NC(=O)c2ccoc2)cc1-c1ccc(C(=O)NCC2CC2)cc1 ?
4.54

Quick check: inhibition of CS(=O)(=O)CCNCc1ccc(-c2ccc3ncnc(Nc4ccc(OCc5ccccc5)c(Br)c4)c3c2)o1 ?
8.98

The measurements presented in this section are drawn from ChEMBL document CHEMBL1961873.
